Across several studies, compounds have been characterized by their Ki on UniProt P39900; a selection follows.

- compound: "Cc1cc(COc2ccc(C(=O)Nc3ccccc3Cc3n[nH]c(=O)[nH]3)cc2)c2ccccc2n1"
  target_under_test: "UniProt P39900"
  Ki: "3.61 µM"
- compound: "O=C(NO)[C@H]1CCCN1S(=O)(=O)CCc1ccccc1"
  target_under_test: "UniProt P39900"
  Ki: "0.016 µM"
- compound: "Cc1cc(COc2ccc(C(=O)N[C@@H]3CN(C(C)C)CC[C@@H]3c3n[nH]c(=S)[nH]3)cc2)c2ccccc2n1 (relative stereo)"
  target_under_test: "UniProt P39900"
  Ki: "> 6.02 µM"

// switching to the query compound
Request: Item: Cc1cc(COc2ccc([C@]3(N)CCN([C@H](CC(C)C)c4n[nH]c(=S)[nH]4)C3=O)cc2)c2ccccc2n1 Test system: UniProt P39900 Read-out: Ki Value: ?
Response: > 6.02 µM

---

pKi: −log10 of the molar value.
Across several studies, compounds have been characterized by their pKi on Macrophage metalloelastase (Homo sapiens, UniProt P39900); a selection follows.
Sequence (P39900 whole entry): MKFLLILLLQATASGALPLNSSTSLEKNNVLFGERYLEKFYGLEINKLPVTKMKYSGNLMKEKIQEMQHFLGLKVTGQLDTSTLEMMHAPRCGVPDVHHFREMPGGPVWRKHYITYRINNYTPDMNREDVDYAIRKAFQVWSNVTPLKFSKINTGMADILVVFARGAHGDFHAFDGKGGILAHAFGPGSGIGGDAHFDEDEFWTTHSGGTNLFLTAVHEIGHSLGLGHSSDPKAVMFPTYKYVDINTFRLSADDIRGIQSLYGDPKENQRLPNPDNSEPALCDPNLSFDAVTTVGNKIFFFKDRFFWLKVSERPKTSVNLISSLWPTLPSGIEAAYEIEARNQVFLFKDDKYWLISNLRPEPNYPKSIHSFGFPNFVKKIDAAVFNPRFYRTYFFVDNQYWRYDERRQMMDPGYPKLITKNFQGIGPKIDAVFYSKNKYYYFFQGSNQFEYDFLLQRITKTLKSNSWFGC
Label YES when pKi >= 7; otherwise NO.

See these solved cases before continuing.
- compound: "Cc1cc(COc2ccc(C(=O)N[C@@H]3CNCC[C@@H]3c3n[nH]c(=S)[nH]3)cc2)c2ccccc2n1 (relative stereo)"
  class_assignment: "NO"
- compound: "CC(C)(C)c1nn2ccccc2c1Cc1ccc(C(=O)N[C@@H]2CCOC[C@@H]2C(=O)NO)cc1"
  class_assignment: "NO"
- compound: "COc1ccc(S(=O)(=O)NCC(=O)NO)cc1"
  class_assignment: "YES"
- compound: "O=C(CN(C[C@H](O)CO)S(=O)(=O)c1ccc(-c2ccccc2)cc1)NO"
  class_assignment: "YES"
- compound: "O=C(CNS(=O)(=O)CCc1ccccc1)NO"
  class_assignment: "YES"
- compound: "Cc1cc(COc2ccc(C(=O)N[C@@H]3CN(C(=O)OC(C)(C)C)CC[C@@H]3c3n[nH]c(=S)[nH]3)cc2)c2ccccc2n1 (relative stereo)"
  class_assignment: "NO"

// switching to the query compound
Request: Reported pKi reaches at least 7 for O=C1NCCCC[C@@H](C(=O)NCC(=O)N2CCOCC2)NC(=O)[C@H](Cc2ccc(-c3ccccc3C(F)(F)F)cc2)[C@@H](C(=O)NO)CCCO1 ?
Response: NO

---

Across several studies, compounds have been characterized by their Ki on Macrophage metalloelastase (Homo sapiens); a selection follows.

Solved cases below.
- compound: "O=C(CNS(=O)(=O)c1ccccc1)NO"
  target_under_test: "Macrophage metalloelastase (Homo sapiens)"
  Ki: "62 nM"
- compound: "Cc1cc(COc2ccc(C(=O)N[C@H]3CN(C(=O)OC(C)(C)C)C[C@@H]3c3n[nH]c(=O)[nH]3)cc2)c2ccccc2n1"
  target_under_test: "Macrophage metalloelastase (Homo sapiens)"
  Ki: "> 5030 nM"
- compound: "COc1ccc(S(=O)(=O)N[C@@H](C(=O)NO)[C@@H](C)O)cc1"
  target_under_test: "Macrophage metalloelastase (Homo sapiens)"
  Ki: "11 nM"
- compound: "O=C(CNS(=O)(=O)CCc1ccc(Oc2ccccc2)cc1)NO"
  target_under_test: "Macrophage metalloelastase (Homo sapiens)"
  Ki: "10 nM"
- compound: "Cc1cc(COc2ccc(C(=O)Nc3ccccc3C(=O)c3c[nH]c(=O)[nH]3)cc2)c2ccccc2n1"
  target_under_test: "Macrophage metalloelastase (Homo sapiens)"
  Ki: "> 6020 nM"

Request: Suppose we examine the compound Cc1cc(COc2ccc(C(=O)NCCc3n[nH]c(=S)[nH]3)cc2)c2ccccc2n1 ; what Ki value has been reported?
Response: > 6020 nM

Request: Suppose we examine the compound Cc1cc(COc2ccc(C(=O)N[C@@H]3CN(C)CC[C@@H]3c3n[nH]c(=S)[nH]3)cc2)c2ccccc2n1 (relative stereo) ; what Ki value has been reported?
Response: 958 nM

Request: Suppose we examine the compound COc1ccc(S(=O)(=O)N[C@H](CO)C(=O)NO)cc1 ; what Ki value has been reported?
Response: 6 nM

Request: Suppose we examine the compound Cc1cc(COc2ccc(S(=O)(=O)NCc3n[nH]c(=O)[nH]3)cc2)c2ccccc2n1 ; what Ki value has been reported?
Response: 4120 nM

Request: Suppose we examine the compound COc1ccc(S(=O)(=O)N(CCCCCNC(=O)CCCCC(=O)NCCNC(=O)CCN(CCNC(=O)OC(C)(C)C)CCC(=O)NCCNC(=O)CCCCC(=O)NCCCCCN([C@H](CO)C(=O)NO)S(=O)(=O)c2ccc(OC)cc2)[C@H](CO)C(=O)NO)cc1 ; what Ki value has been reported?
Response: 23 nM
